Ref: patent US20240158446A1

# assay.system: GDP-bound KRAS wild-type protein (Homo sapiens)
# protocol.notes: Binding to KRAS by surface plasmon resonance (SPR), Single Cycle Kinetics
# experimental.context: SPR, Single Cycle Kinetics, GDP-bound KRAS wild-type protein; read-out: KRAS KD
reported.endpoint: pKd
Conceptually, pKd converts a concentration in mol/L into minus its log10.

CCO[C@@H]1C[C@H]2C(=O)NC3(CCCC3)C(=O)N(C)[C@@H](C3CCCC3)C(=O)N(C)[C@H](C(=O)N3CCOCC3)CC(=O)N(C)[C@@H](COC)C(=O)N[C@@H]([C@@H](C)CC)C(=O)NCC(=O)N(C)[C@H]3CCCCCN(C3=O)[C@@H](Cc3ccc(C(F)(F)F)cc3)C(=O)N(C)CC(=O)N[C@@H](CCc3cc(F)c(C(F)(F)F)c(F)c3)C(=O)N2C1 8.96

Ask | Quick one: pKd of CCCN(C)C(=O)[C@@H]1CC(=O)N(C)[C@@H](CC(C)C)C(=O)N[C@@H](C2CCOCC2)C(=O)N(C)CC(=O)N(C)[C@H]2C/C=C\CCN(C2=O)[C@@H](Cc2ccc(C(F)(F)F)cc2)C(=O)N(C)CC(=O)N[C@@H](CCc2cc(F)c(C(F)(F)F)c(F)c2)C(=O)N2C[C@H](OCC)C[C@H]2C(=O)NC2(CC(C)(C)C2)C(=O)N(C)[C@@H](C2CCCC2)C(=O)N1C ?
Reply | 8.47

Ask | Would you mind doing CCC[C@H]1C(=O)N[C@@H]([C@@H](C)CC)C(=O)N(C)CC(=O)N(C)[C@H]2C/C=C\CCN(C2=O)[C@@H](Cc2ccc(C)cc2)C(=O)N(C)CC(=O)N[C@@H](CCc2cc(F)c(C(F)(F)F)c(F)c2)C(=O)N2C[C@H](OCC)C[C@H]2C(=O)N(C)C2(CCC2)C(=O)N(C)[C@@H](C2CCCC2)C(=O)N(C)[C@H](C(=O)N2CCCC2)CC(=O)N1C as well?
Reply | 10.37

* * *

Listed compounds paired with reported Kd
# assay.system: GDP-bound KRAS wild-type protein (Homo sapiens, UniProt P01116)
# Sequence (P01116 whole entry): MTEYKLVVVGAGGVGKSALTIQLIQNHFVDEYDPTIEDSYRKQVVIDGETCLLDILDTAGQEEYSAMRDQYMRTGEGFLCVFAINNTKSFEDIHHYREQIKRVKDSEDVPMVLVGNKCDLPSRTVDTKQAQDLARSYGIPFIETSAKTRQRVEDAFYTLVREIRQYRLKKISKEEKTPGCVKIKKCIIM
# protocol.notes: Binding to KRAS by surface plasmon resonance (SPR), Single Cycle Kinetics
# experimental.context: SPR Single Cycle Kinetics, GDP-bound KRAS wild-type protein, 1:1 binding model; read-out: KRAS KD
Where a SMILES comes first, the peptide text is derived from it. Bridges are numbered along the chain shown (N, C = ends). [ ]: non-standard residue; d: D form. The star is where a group is joined. hPhe(3-Cl-4-CF3) = N[C@@H](CCc1ccc(C(F)(F)F)c(Cl)c1)C(=O)O; NPrPhe(4-CF3) = CCCN[C@@H](Cc1ccc(C(F)(F)F)cc1)C(=O)O; NMeGly(cPent) = CN[C@H](C(=O)O)C1CCCC1; NMeD = CN[C@@H](CC(=O)O)C(=O)O; NMeL = CN[C@@H](CC(C)C)C(=O)O; N(Me)CH2CH2OMe = COCCN(C)*; Morpholide = C1CN(*)CCO1; Ac5c = NC1(C(=O)O)CCCC1; NPrGly = CCCNCC(=O)O; NEtG = CCNCC(=O)O; Sar = CNCC(=O)O
The response must be a number in nM with no trailing unit.

compound	assay.system	output.unit	Kd
CCCN1C(=O)CN(C)C(=O)CN(C)C(=O)[C@H]([C@@H](C)CC)NC(=O)[C@H](CC(C)C)N(C)C(=O)C[C@@H](C(=O)N(C)CCOC)N(C)C(=O)[C@H](C2CCCC2)N(C)C(=O)C2(CCCC2)NC(=O)[C@@H]2CCCN2C(=O)[C@H](CCc2ccc(C(F)(F)F)c(Cl)c2)NC(=O)CN(C)C(=O)[C@@H]1Cc1ccc(C(F)(F)F)cc1 [PP0391] ([NMeL]I[Sar][Sar][NPrPhe(4-CF3)][Sar][hPhe(3-Cl-4-CF3)]P[Ac5c][NMeGly(cPent)][NMeD]-{N(Me)CH2CH2OMe}; lactam N-11)	GDP-bound KRAS wild-type protein (Homo sapiens, UniProt P01116)	nM	0.092

Please examine the following record next.
Ask | Return Kd measured with GDP-bound KRAS wild-type protein (Homo sapiens, UniProt P01116) given this compound: CCCN1CC(=O)NC2(CCCC2)C(=O)N(C)[C@@H](C2CCCC2)C(=O)N(C)[C@H](C(=O)N2CCOCC2)CC(=O)N(C)[C@@H](CC(C)C)C(=O)N[C@@H]([C@@H](C)CC)C(=O)N(CC)CC(=O)N(C)CC(=O)N(CCC)[C@@H](Cc2ccc(C(F)(F)F)cc2)C(=O)N(C)CC(=O)N[C@@H](CCc2ccc(C(F)(F)F)c(Cl)c2)C1=O [PP0301] ([NMeL]I[NEtG][Sar][NPrPhe(4-CF3)][Sar][hPhe(3-Cl-4-CF3)][NPrGly][Ac5c][NMeGly(cPent)][NMeD]-Morpholide; lactam N-11)
Reply | 4.8

* * *

# assay.system: UniProt P01116
# protocol.notes: Binding to KRAS by surface plasmon resonance (SPR), Single Cycle Kinetics
# experimental.context: SPR, Single Cycle Kinetics, GDP-bound KRAS wild-type protein; read-out: KRAS KD
reported.endpoint: Kd (nM)
Response body: numeric value in nM, unit text excluded.

compound	reported.endpoint	observed.result
CCCN(C)C(=O)[C@@H]1CC(=O)N(C)[C@@H](COCC)C(=O)N[C@@H]([C@@H](C)CC)C(=O)N(C)CC(=O)N(C)[C@H]2C/C=C\CCN(C2=O)[C@@H](Cc2ccc(C(F)(F)F)cc2)C(=O)N(C)CC(=O)N[C@@H](CCc2ccc(C(F)(F)F)c(OC)c2)C(=O)N2C[C@H](OCC)C[C@H]2C(=O)NC2(CC(C)(C)C2)C(=O)N(C)[C@@H](C2CCCC2)C(=O)N1C [PP2012]	Kd	0.097

// next entry
Ask | Give UniProt P01116 Kd for CCO[C@@H]1C[C@H]2C(=O)NC3(CCC3)C(=O)N(C)[C@@H](C3CCCC3)C(=O)N(C)[C@H](C(=O)N(C)C)CC(=O)N(C)[C@@H](CC)C(=O)N[C@@H]([C@@H](C)CC)C(=O)N3CC[C@H]3C(=O)N(C)[C@H]3CC(C)=C(C)CN(C3=O)[C@@H](Cc3ccc(C(F)(F)F)cc3)C(=O)N(C)CC(=O)N[C@@H](CCc3cc(F)c(C(F)(F)F)c(F)c3)C(=O)N2C1 [PP1049]
Reply | 0.91

* * *

# assay.system: UniProt P01116
# protocol.notes: Binding to KRAS by surface plasmon resonance (SPR), Single Cycle Kinetics
# experimental.context: SPR, Single Cycle Kinetics, GDP-bound KRAS wild-type protein; read-out: KRAS KD
# pKd values compiled below
pKd here is simply -log10 of the concentration when that concentration is written in mol/L.

compound	pKd
CCO[C@@H]1C[C@H]2C(=O)NC3(CCC3)C(=O)N(C)[C@@H](C3CCCC3)C(=O)N3CCC[C@@H]3CC(=O)N(C)[C@@H](CC)C(=O)N[C@@H]([C@@H](C)CC)C(=O)N(C)CC(=O)N(C)[C@H]3C/C=C\CCN(C3=O)[C@@H](Cc3ccc(C(F)(F)F)cc3)C(=O)N(C)CC(=O)N[C@@H](CCc3cc(F)c(C(F)(F)F)c(F)c3)C(=O)N2C1 [PP1097]	9.92

Consider now this further compound.
Ask | May I ask what pKd has been recorded for CCO[C@@H]1C[C@H]2C(=O)NC3(CC(C)(C)C3)C(=O)N(C)[C@@H](C(CC)CC)C(=O)N(C)[C@H](C3CCC3)CC(=O)N(C)[C@@H](CC3CC3)C(=O)N[C@@H]([C@@H](C)CC)C(=O)N(C)CC(=O)N(C)[C@H]3C/C=C\CCN(C3=O)[C@@H](Cc3ccc(C(F)(F)F)cc3)C(=O)N(C)CC(=O)N[C@@H](CCc3cc(F)c(C(F)(F)F)c(F)c3)C(=O)N2C1 [PP1634] ?
Reply | 8.29

* * *

# assay.system: GDP-bound KRAS wild-type protein (Homo sapiens)
# protocol.notes: Binding to KRAS by surface plasmon resonance (SPR), Single Cycle Kinetics
# experimental.context: SPR Single Cycle Kinetics, GDP-bound KRAS wild-type protein, 1:1 binding model; read-out: KRAS KD
Where a SMILES comes first, the peptide text is derived from it. Bridges are numbered along the chain shown (N, C = ends). [ ]: non-standard residue; d: D form. The star is where a group is joined. hPhe(3-Cl-4-CF3) = N[C@@H](CCc1ccc(C(F)(F)F)c(Cl)c1)C(=O)O; NPrPhe(4-CF3) = CCCN[C@@H](Cc1ccc(C(F)(F)F)cc1)C(=O)O; Pro(4-spirocPr) = O=C(O)[C@@H]1CC2(CC2)CN1; NMeGly(cPent) = CN[C@H](C(=O)O)C1CCCC1; Pro(4,4-F2) = O=C(O)[C@@H]1CC(F)(F)CN1; Hyp = O=C(O)[C@@H]1C[C@@H](O)CN1; NMeD = CN[C@@H](CC(=O)O)C(=O)O; NMeL = CN[C@@H](CC(C)C)C(=O)O; Morpholide = C1CN(*)CCO1; NMeA = CN[C@@H](C)C(=O)O; Ac5c = NC1(C(=O)O)CCCC1; Aze = O=C(O)[C@@H]1CCN1; Ac4c = NC1(C(=O)O)CCC1; Sar = CNCC(=O)O
Quick list: Kd per entry.
// return numeric value only (unit: nM, not printed)

Answered examples (8):
molecule	reported.endpoint	observed.result
CCC(CC)[C@H]1C(=O)N(C)[C@H](C(=O)N(C)C)CC(=O)N(C)[C@@H](COC)C(=O)N[C@@H]([C@@H](C)CC)C(=O)N(C)CC(=O)N(C)[C@H]2C/C=C\CCN(C2=O)[C@@H](Cc2ccc(C(F)(F)F)cc2)C(=O)N(C)CC(=O)N[C@@H](CCc2ccc(C(F)(F)F)c(Cl)c2)C(=O)N2CC3(CC3)C[C@H]2C(=O)NC2(CC(C)(C)C2)C(=O)N1C	Kd	0.47
CCCN1C(=O)[C@@H]2CCN2C(=O)[C@H](C)N(C)C(=O)[C@H]([C@@H](C)CC)NC(=O)[C@H](CC(C)C)N(C)C(=O)C[C@@H](C(=O)N2CCOCC2)N(C)C(=O)[C@H](C2CCCC2)N(C)C(=O)C2(CCCC2)NC(=O)[C@@H]2CC3(CC3)CN2C(=O)[C@H](CCc2ccc(C(F)(F)F)c(Cl)c2)NC(=O)CN(C)C(=O)[C@@H]1Cc1ccc(C(F)(F)F)cc1 [PP0282] ([NMeL]I[NMeA][Aze][NPrPhe(4-CF3)][Sar][hPhe(3-Cl-4-CF3)][Pro(4-spirocPr)][Ac5c][NMeGly(cPent)][NMeD]-Morpholide; lactam N-11)	Kd	0.11
CCC(CC)[C@H]1C(=O)N(C)[C@H](C(=O)N(C)C)CC(=O)N(C)[C@H]2CCC/C=C/c3ccc(cc3)C[C@@H](C(=O)N(C)CC(=O)N[C@@H](CCc3cc(F)c(C(F)(F)F)c(F)c3)C(=O)N3CCC[C@H]3C(=O)NC3(CC(C)(C)C3)C(=O)N1C)N1CC/C=C\C[C@@H](C1=O)N(C)C(=O)CN(C)C(=O)[C@H]([C@@H](C)CC)NC2=O	Kd	0.17
CCC[C@H]1C(=O)N[C@@H]([C@@H](C)CC)C(=O)N(C)CC(=O)N(C)[C@H]2C/C=C\CCN(C2=O)[C@@H](Cc2ccc(C(F)(F)F)cc2)C(=O)N(C)CC(=O)N[C@@H](CCc2cc(F)c(C(F)F)c(F)c2)C(=O)N2C[C@H](OCC)C[C@H]2C(=O)NC2(CC(C)(C)C2)C(=O)N(C)[C@@H](C(CC)CC)C(=O)N(C)[C@H](C(=O)N(C)C)CC(=O)N1C	Kd	1.5
CCCN1C(=O)CN(C)C(=O)CNC(=O)[C@H]([C@@H](C)CC)NC(=O)[C@H](CC(C)C)N(C)C(=O)C[C@@H](C(=O)N2CCOCC2)NC(=O)[C@H](C2CCCC2)N(C)C(=O)C2(CCC2)NC(=O)[C@@H]2C[C@@H](OCC)CN2C(=O)[C@H](CCc2ccc(C(F)(F)F)c(Cl)c2)NC(=O)CN(C)C(=O)[C@@H]1Cc1ccc(C(F)(F)F)cc1 [PP0330] ([NMeL]IG[Sar][NPrPhe(4-CF3)][Sar][hPhe(3-Cl-4-CF3)][Hyp](Et)[Ac4c][NMeGly(cPent)]D-Morpholide; lactam N-11)	Kd	0.95
CCC(CC)[C@H]1C(=O)N(C)[C@H](C(=O)N(C)C)CC(=O)N(C)[C@@H](COC)C(=O)N[C@@H]([C@@H](C)CC)C(=O)N(C2CC2)CC(=O)N(C)[C@H]2C/C=C\CCN(C2=O)[C@@H](CC2CCC(F)(F)CC2)C(=O)N(C)CC(=O)N[C@@H](CCc2ccc(Cl)c(Cl)c2)C(=O)N2C[C@H](OC(C)C)C[C@H]2C(=O)NC2(CC(C)(C)C2)C(=O)N1C	Kd	3.8
CCCN1C(=O)[C@@H]2CCN2C(=O)[C@H](C)N(C)C(=O)[C@H]([C@@H](C)CC)NC(=O)[C@H](CC(C)C)N(C)C(=O)C[C@@H](C(=O)N2CCOCC2)N(C)C(=O)[C@H](C2CCCC2)N(C)C(=O)C2(CCCC2)NC(=O)CN(C)C(=O)[C@H](CCc2ccc(C(F)(F)F)c(Cl)c2)NC(=O)CN(C)C(=O)[C@@H]1Cc1ccc(C(F)(F)F)cc1 [PP0287] ([NMeL]I[NMeA][Aze][NPrPhe(4-CF3)][Sar][hPhe(3-Cl-4-CF3)][Sar][Ac5c][NMeGly(cPent)][NMeD]-Morpholide; lactam N-11)	Kd	0.26
CCCN1C(=O)[C@@H]2CCN2C(=O)CN(C)C(=O)[C@H]([C@@H](C)CC)NC(=O)[C@H](CC(C)C)N(C)C(=O)C[C@@H](C(=O)N2CCOCC2)NC(=O)[C@H](C2CCCC2)N(C)C(=O)C2(CCC2)NC(=O)[C@@H]2CCCN2C(=O)[C@H](CCc2ccc(C(F)(F)F)c(Cl)c2)NC(=O)CN(C)C(=O)[C@@H]1Cc1ccc(C(F)(F)F)cc1 [PP0350] ([NMeL]I[Sar][Aze][NPrPhe(4-CF3)][Sar][hPhe(3-Cl-4-CF3)]P[Ac4c][NMeGly(cPent)]D-Morpholide; lactam N-11)	Kd	1.1

Kindly review the next molecule as well.
Ask | Item under review: CCCN1C(=O)CN(C)C(=O)CN(C)C(=O)[C@H]([C@@H](C)CC)NC(=O)[C@H](CC(C)C)N(C)C(=O)C[C@@H](C(=O)N(C)C)N(C)C(=O)[C@H](C2CCCC2)N(C)C(=O)C2(CCC2)NC(=O)[C@@H]2CC(F)(F)CN2C(=O)[C@H](CCc2ccc(C(F)(F)F)c(Cl)c2)NC(=O)CN(C)C(=O)[C@@H]1Cc1ccc(C(F)(F)F)cc1 [PP0414] ([NMeL]I[Sar][Sar][NPrPhe(4-CF3)][Sar][hPhe(3-Cl-4-CF3)][Pro(4,4-F2)][Ac4c][NMeGly(cPent)][NMeD]-NMe2; lactam N-11) . Reported Kd?
Reply | 0.029
